// endpoint Ki / system UniProtKB P52732
Give bare numbers, in nM.

> print(dat)
                               smiles.input  experimental.readout  units.symbol  measurement
1  Cc1ccc(C(SC[C@H](N)C(=O)O)(c2ccccc2)c2ccccc2)cc1                    Ki            nM         13.6
2  N[C@@H](CSC(c1ccccc1)(c1ccccc1)c1ccc2ccccc2c1)C(=O)O                    Ki            nM          4.2

Now take the following compound into account.
Per the records, this compound ( NCCSC(c1ccccc1)(c1ccccc1)c1ccccc1 ) has Ki equal to 152

----------
Test Protocol: Distribution coefficient, log D of the compound at pH 7.4
Format: physicochemical
Settings: octanol/water, read-out: logD
Experimental Readout: logD
Answers are plain numbers.

GET /value?item= Cc1cccc(C(CCC(N)C(=O)O)(c2ccccc2)c2ccccc2)c1 (racemic) &field=logD returns 2.45

----------
Test Protocol: Antiproliferative activity against human hTERT-HME1 cells after 72 hrs by Alamar blue assay
Type: cell-based
What GI50 at 72 h was measured for each of the following?
Answers are plain numbers, in nM.

These solved cases illustrate the format of a correct answer.
> print(dat)
                                   compound  measurement
1      Cc1cccc(C(CCCN)(c2ccccc2)c2ccccc2)c1          150
2  COc1ccc(C(SC[C@H](N)C(=O)O)(c2ccccc2)c2ccccc2)cc1           81
3  N[C@@H](CSC(c1ccccc1)(c1ccccc1)c1ccc2ccccc2c1)C(=O)O          119

Batch request: GI50 at 72 h per item, same order as input.
1. Cc1ccc(C(CCCN)(c2ccccc2)c2ccccc2)cc1
2. Cc1cccc(C(CC[C@H](N)C(=O)O)(c2ccccc2)c2ccccc2)c1
3. NCCCC(c1ccccc1)(c1ccccc1)c1ccccc1

[601, 42, 572]

----------
Test Protocol: Dissociation constant, pKa of the compound
Type: physicochemical
Experimental Readout: pKa
One number for each entry.

> print(dat)
                                   compound  experimental.readout  measurement
1  Cc1ccc(C(=O)N(CCCN)[C@@H](c2nc3cc(Cl)ccc3c(=O)n2Cc2ccccc2)C(C)C)cc1 [ISPINESIB]                   pKa         9.34

Turning now to a further record.
Lab book: pKa of Cc1cccc(C(CCCN)(c2ccccc2)c2ccccc2)c1 noted as 10.1

----------
Answer each item with its documented CLH.
Test Protocol: Intrinsic clearance in human hepatocytes assessed as per million cells
Assay type: ADME, cell-based, Hepatocyte
Numbers only, in µL/min.

> print(dat)
                           smiles.input  units.symbol  measurement
1  Cc1cccc(C(CCCN)(c2ccccc2)c2ccccc2)c1        µL/min         3.93

Next molecule, please.
For reference, reported CLH for Cc1ccc(C(=O)N(CCCN)[C@@H](c2nc3cc(Cl)ccc3c(=O)n2Cc2ccccc2)C(C)C)cc1 stands at 0.75

----------
Experimental Target: Kinesin-like protein KIF11 (Homo sapiens, UniProt P52732)
Sequence (P52732 whole entry): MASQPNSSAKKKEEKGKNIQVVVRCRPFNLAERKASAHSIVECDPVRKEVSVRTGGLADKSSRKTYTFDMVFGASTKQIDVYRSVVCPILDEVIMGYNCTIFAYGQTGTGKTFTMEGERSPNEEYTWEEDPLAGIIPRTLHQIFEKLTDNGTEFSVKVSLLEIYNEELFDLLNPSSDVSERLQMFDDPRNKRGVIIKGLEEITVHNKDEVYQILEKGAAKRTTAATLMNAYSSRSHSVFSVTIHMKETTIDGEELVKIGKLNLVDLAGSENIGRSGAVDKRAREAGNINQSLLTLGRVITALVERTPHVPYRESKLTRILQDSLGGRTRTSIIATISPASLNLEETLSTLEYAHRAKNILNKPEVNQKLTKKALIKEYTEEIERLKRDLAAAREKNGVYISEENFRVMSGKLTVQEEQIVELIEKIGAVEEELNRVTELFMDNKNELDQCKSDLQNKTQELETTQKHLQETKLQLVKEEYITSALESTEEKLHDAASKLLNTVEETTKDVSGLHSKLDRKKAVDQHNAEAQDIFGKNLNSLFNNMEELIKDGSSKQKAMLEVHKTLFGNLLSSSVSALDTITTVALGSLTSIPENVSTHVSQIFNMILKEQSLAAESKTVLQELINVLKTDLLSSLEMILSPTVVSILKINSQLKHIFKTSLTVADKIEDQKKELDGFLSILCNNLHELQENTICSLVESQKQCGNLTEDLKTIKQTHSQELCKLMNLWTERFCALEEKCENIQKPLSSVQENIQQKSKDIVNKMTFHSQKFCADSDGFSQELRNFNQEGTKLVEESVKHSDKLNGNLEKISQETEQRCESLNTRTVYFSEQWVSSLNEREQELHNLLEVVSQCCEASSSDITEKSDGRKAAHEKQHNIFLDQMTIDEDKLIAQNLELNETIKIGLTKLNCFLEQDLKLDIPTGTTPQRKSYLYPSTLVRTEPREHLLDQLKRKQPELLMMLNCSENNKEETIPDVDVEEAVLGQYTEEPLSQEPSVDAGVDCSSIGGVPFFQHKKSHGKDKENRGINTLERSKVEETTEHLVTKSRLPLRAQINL
Would you mind telling me the reported pKi of each entry?
Answers are plain numbers, as −log10 of the molar value.

Before answering, review these 6 worked examples.
> print(dat)
                               smiles.input  experimental.readout  measurement
1      NCCSC(c1ccccc1)(c1ccccc1)c1cccc(F)c1                   pKi         6.42
2         NCCSC(c1ccccc1)(c1ccccc1)c1ccccc1                   pKi         6.61
3    N#Cc1ccc(C(SCCN)(c2ccccc2)c2ccccc2)cc1                   pKi         6.36
4     COc1cccc(C(SCCN)(c2ccccc2)c2ccccc2)c1                   pKi         6.82
5  NCCSC(c1ccccc1)(c1ccccc1)c1cccc(C(F)(F)F)c1                   pKi         6.45
6  CC(=O)c1ccc(C(SC[C@H](N)C(=O)O)(c2ccccc2)c2ccccc2)cc1                   pKi         6.57

Short answer for NCCNC(c1ccccc1)(c1ccccc1)c1ccccc1 : pKi was 5.58
